Please respond with reported IC50 for every item in the list.
test: Cytotoxicity against mouse B16F10 cells after 48 hrs by MTT assay; type: functional, cell-based; conditions: B16-F10, 48 h
I only need the number, in nM, no unit after it.

Please give the measured IC50 for this compound: `C[C@@]12CC[C@@H]3[C@@](CC[C@H]4[C@@]3(C)CCC[C@@]4(C)C(=O)NCC(=O)OCCOc3no[n+]([O-])c3S(=O)(=O)c3ccccc3)(CC(=O)O1)C2` 3520

Please give the measured IC50 for this compound: `C[C@@]12CC[C@@H]3[C@@](CC[C@H]4[C@@]3(C)CCC[C@@]4(C)C(=O)NCC(=O)OCCCOc3no[n+]([O-])c3S(=O)(=O)c3ccccc3)(CC(=O)O1)C2` 2050

Please give the measured IC50 for this compound: `C=C1C(=O)[C@@]2(C)CC[C@@H]3[C@]1(CC[C@H]1[C@@]3(C)CCC[C@@]1(C)C(=O)NCC(=O)OCCOc1no[n+]([O-])c1S(=O)(=O)c1ccccc1)C2` 1010

Please give the measured IC50 for this compound: `C=C[C@]12CC[C@H]3[C@@](C)(CCC[C@@]3(C)C(=O)O)[C@@H]1CC[C@](C)(COC(=O)CCC(=O)OCCOc1no[n+]([O-])c1S(=O)(=O)c1ccccc1)C2` 1980

====

test: Cytotoxicity against mouse B16F10 cells after 48 hrs by MTT assay; type: functional, cell-based; conditions: B16-F10, 48 h
Please respond with reported log10(IC50) for every item in the list.
Units before log transform: µM; reported quantity: IC50; transform: log10.

Please give the measured log10(IC50) for this compound: `C[C@@]12CC[C@@H]3[C@@](CC[C@H]4[C@@]3(C)CCC[C@@]4(C)C(=O)NCC(=O)OCCOc3no[n+]([O-])c3S(=O)(=O)c3ccccc3)(CC1=O)C2` 0.44

Please give the measured log10(IC50) for this compound: `C=C1C(=O)[C@@]2(C)CC[C@@H]3[C@]1(CC[C@H]1[C@@]3(C)CCC[C@@]1(C)C(=O)NCC(=O)OCCCOc1no[n+]([O-])c1S(=O)(=O)c1ccccc1)C2` -1.80

Please give the measured log10(IC50) for this compound: `COC(=O)[C@]1(C)CCC[C@@]2(C)[C@@H]3CC[C@@]4(C)C[C@]3(CC[C@@H]21)C/C4=N\OC(=O)CCC(=O)OCCOCCOc1no[n+]([O-])c1S(=O)(=O)c1ccccc1` 0.33

Please give the measured log10(IC50) for this compound: `C=C[C@]12CC[C@H]3[C@@](C)(CCC[C@@]3(C)C(=O)O)[C@@H]1CC[C@](C)(COC(=O)CCC(=O)OCC#CCOc1no[n+]([O-])c1S(=O)(=O)c1ccccc1)C2` 0.58

Please give the measured log10(IC50) for this compound: `C[C@@]12CC[C@@H]3[C@@](CC[C@H]4[C@@]3(C)CCC[C@@]4(C)C(=O)NCC(=O)OCCCOc3no[n+]([O-])c3S(=O)(=O)c3ccccc3)(CC1=O)C2` 0.91

Please give the measured log10(IC50) for this compound: `C[C@@]12CC[C@@H]3[C@@](CC[C@H]4[C@@]3(C)CCC[C@@]4(C)C(=O)NCC(=O)OCC#CCOc3no[n+]([O-])c3S(=O)(=O)c3ccccc3)(CC1=O)C2` -0.60

Please give the measured log10(IC50) for this compound: C[C@]12CC[C@@H]3[C@](CC[C@H]4[C@@]3(C)CCC[C@@]4(C)C(=O)NCC(=O)OCCCCOc3no[n+]([O-])c3S(=O)(=O)c3ccccc3)(C1)C(C=O)O2 (stereo partly specified) 0.72

Please give the measured log10(IC50) for this compound: CC[C@@]1(O)C(=O)OCc2c1cc1n(c2=O)Cc2cc3ccccc3nc2-1 [CAMPTOTHECIN] 0.44

Please give the measured log10(IC50) for this compound: COC(=O)[C@]12CCC(C)(C)C[C@H]1[C@H]1C(=O)C=C3[C@@]4(C)C=C(C#N)C(=O)C(C)(C)[C@@H]4CC[C@@]3(C)[C@]1(C)CC2 [BARDOXOLONE METHYL] 0.77
